Assay: Biodistribution studies of 11C tracers
Assay type: in vivo, Wistar rats
Conditions: 30 min p.i.
Method: Biodistribution studies were carried out in healthy male Wistar rats (body weight 200-450 g) at 2 min, 30 min and 60 min post injection (p.i.) (n=3/time point). […] The radioactivity in blood, organs and other body parts was measured using an automated gamma counter. […] For calculation of total radioactivity in blood, blood mass was assumed to be 7% of the body mass.
The label depends only on % ID Intestines: 1.0 if it is at least 10 % ID, 0.0 if it is smaller.

[11CH3]Oc1ccc(F)c(F)c1C1CCN(c2ccn3c(CC4CC4)nnc3c2Cl)CC1 [[^11C]B-10] : 0.0
[11CH3]Oc1c(F)ccc(F)c1C1CCN(c2ccn3c(CC4CC4)nnc3c2Cl)CC1 [[^11C]B-2] : 1.0
[11CH3]Oc1c(F)ccc(F)c1C1CCN(c2ccn3c(CC4CC4)nnc3c2C(F)(F)F)CC1 [[^11C]B-3] : 0.0
[11CH3]Oc1ccc(F)cc1C1CCN(c2ccn3c(CC4CC4)nnc3c2Cl)CC1 [[^11C]B-4] : 0.0

====

Assay: Biodistribution studies of 11C tracers
Assay type: in vivo, Wistar rats
Conditions: 30 min p.i.
The label depends only on % ID Striatum: true if it is at least 0.04 % ID, false if it is smaller.

[11CH3]Oc1c(F)ccc(F)c1C1CCN(c2ccn3c(CC4CC4)nnc3c2C(F)(F)F)CC1 [[^11C]B-3] : false
[11CH3]Oc1cccc(F)c1C1CCN(c2ccn3c(CC4CC4)nnc3c2Cl)CC1 [[^11C]B-6] : false
[11CH3]Oc1ccc(F)c(F)c1C1CCN(c2ccn3c(CC4CC4)nnc3c2Cl)CC1 [[^11C]B-10] : false
[11CH3]Oc1cc(F)cc(F)c1C1CCN(c2ccn3c(CC4CC4)nnc3c2Cl)CC1 [[^11C]B-7] : true
[11CH3]Oc1c(F)ccc(F)c1C1CCN(c2ccn3c(CC4CC4)nnc3c2Cl)CC1 [[^11C]B-2] : true
[11CH3]Oc1ccc(F)cc1C1CCN(c2ccn3c(CC4CC4)nnc3c2Cl)CC1 [[^11C]B-4] : false

====

Assay: Biodistribution studies of 11C tracers
Assay type: in vivo, Wistar rats
Conditions: 30 min p.i.
property.label: % ID Carcass (% ID)

[11CH3]Oc1cc(F)cc(F)c1C1CCN(c2ccn3c(CC4CC4)nnc3c2Cl)CC1 [[^11C]B-7] : 64.9
[11CH3]Oc1ccc(F)c(F)c1C1CCN(c2ccn3c(CC4CC4)nnc3c2Cl)CC1 [[^11C]B-10] : 62.97
[11CH3]Oc1c(F)ccc(F)c1C1CCN(c2ccn3c(CC4CC4)nnc3c2Cl)CC1 [[^11C]B-2] : 50.9

====

SUV Blood by entry:
Assay: Biodistribution studies of 11C tracers
Type: in vivo, Wistar rats
Settings: 60 min p.i., normalized for body weight
property.label: SUV Blood

[11CH3]Oc1c(F)ccc(F)c1C1CCN(c2ccn3c(CC4CC4)nnc3c2C(F)(F)F)CC1 [[^11C]B-3] : 0.40
[11CH3]Oc1c(F)ccc(F)c1C1CCN(c2ccn3c(CC4CC4)nnc3c2Cl)CC1 [[^11C]B-2] : 0.30
[11CH3]Oc1cc(F)cc(F)c1C1CCN(c2ccn3c(CC4CC4)nnc3c2Cl)CC1 [[^11C]B-7] : 0.50

Each recorded value in this set is attributed to patent US20130230459A1.
